# Target Of Assay: R132H IDH1 (Homo sapiens, UniProt O75874, R132H)
# Sequence (O75874 whole entry R132H): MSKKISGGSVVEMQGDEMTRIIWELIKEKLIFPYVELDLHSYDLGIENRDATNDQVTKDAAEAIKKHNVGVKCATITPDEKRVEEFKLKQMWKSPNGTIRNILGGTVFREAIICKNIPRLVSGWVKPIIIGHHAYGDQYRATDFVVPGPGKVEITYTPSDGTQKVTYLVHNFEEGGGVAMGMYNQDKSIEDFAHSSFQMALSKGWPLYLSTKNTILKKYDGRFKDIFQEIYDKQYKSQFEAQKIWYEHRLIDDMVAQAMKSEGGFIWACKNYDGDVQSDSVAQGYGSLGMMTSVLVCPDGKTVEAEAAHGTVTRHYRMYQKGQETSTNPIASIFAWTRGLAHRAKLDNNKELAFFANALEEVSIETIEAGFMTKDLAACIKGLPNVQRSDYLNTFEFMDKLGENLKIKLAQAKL
# Assay Remarks: Absorbance assay, IC50 determination
# Type: biochemical
# Set-up: made in house; host or cells: Escherichia coli BL21(DE3) pLyS
# Measurement Conditions: […] 2OG, 0.03 μM enzyme, 50 μM NADPH
Assay Metric: IC50

GET /values?readout=IC50&item= CC1(C)c2ccccc2-c2ccc(CC(CC(=O)O)C(=O)C(=O)O)cc21 (racemic) [compound 11]
~1100 µM

====

# Target Of Assay: R132H IDH1 (Homo sapiens, UniProt O75874, R132H)
# Assay Remarks: Absorbance assay, IC50 determination
# Assay type: biochemical
# Design: made in house; host or cells: Escherichia coli BL21(DE3) pLyS
Assay Metric: IC50

For the molecule shown here, O=C(O)CNC(=O)C(=O)O [NOG, N-oxalylglycine, reference compound] , give the reported IC50.
~188 µM
